Quick list: EC50 per entry.
target: human GPR119 (hGPR119) (Homo sapiens, UniProt Q8TDV5); assay: cAMP accumulation assay (Cisbio cAMP Gs dynamic HTRF kit) in CHO-K1 cells stably expressing human GPR119; conditions: 60 minutes at 37° C., 4-parameter fit
Sequence (Q8TDV5 whole entry): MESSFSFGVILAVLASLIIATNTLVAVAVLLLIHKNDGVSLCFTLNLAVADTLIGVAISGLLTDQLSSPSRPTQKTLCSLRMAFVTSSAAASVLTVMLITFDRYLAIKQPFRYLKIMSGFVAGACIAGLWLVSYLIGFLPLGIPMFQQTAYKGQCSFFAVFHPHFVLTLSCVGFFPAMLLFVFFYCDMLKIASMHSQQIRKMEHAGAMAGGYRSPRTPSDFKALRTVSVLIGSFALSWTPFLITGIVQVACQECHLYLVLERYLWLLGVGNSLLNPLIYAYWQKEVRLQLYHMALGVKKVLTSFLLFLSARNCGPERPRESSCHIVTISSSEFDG
Counter-ions that a name gives are not always drawn.

Molecule: O=C(Cc1ccc(OCCCCC2CCN(c3ncc(Cl)cn3)CC2)cc1F)N1CCN(C[C@H](O)[C@@H](O)[C@H](O)[C@H](O)CO)CC1
EC50: ≤ 100 nM
--
Molecule: O=C(CCCCS(=O)(=O)O)N1C[C@@H]2CN(C(=O)Cc3ccc(OCCCC4CCN(c5ncc(Cl)cn5)CC4)cc3F)C[C@@H]2C1
EC50: ≤ 100 nM
--
Molecule: O=C(Cc1ccc(OCCCC2CCN(c3ncc(Cl)cn3)CC2)cc1F)N1CC2CCC1CN2C[C@H](O)[C@H](O)[C@H](O)CO (stereo partly shown)
EC50: ≤ 100 nM
--
Molecule: O=C(Cc1ccc(OCCC2CC(C3CCN(c4ncc(Cl)cn4)CC3)C2)cc1F)N1CCN(C[C@H](O)[C@@H](O)[C@H](O)[C@H](O)CO)CC1 (stereo partly shown)
EC50: 100 to 1000 nM
--
Molecule: O=C(Cc1ccc(OCCCC2CCN(c3ncc(Cl)cn3)CC2)cc1F)N1C[C@H]2C[C@@H]1CN2C[C@H](O)[C@H](O)[C@H](O)CO
EC50: ≤ 100 nM
--
Molecule: O=C(Cc1ccc(OCCCC2CCN(c3ncc(Cl)cn3)CC2)cc1F)N1CCOC2(CCN(C[C@H](O)[C@H](O)[C@H](O)CO)C2)C1 (stereo partly shown)
EC50: ≤ 100 nM

Q: Indicate the recorded EC50 value for this molecule: `O=C(Cc1ccc(OCCCC2CCN(c3ncc(Cl)cn3)CC2)cc1F)N1C[C@H]2CN(C(=O)CCCCS(=O)(=O)O)[C@H]2C1`
A: 100 to 1000 nM

Q: Indicate the recorded EC50 value for this molecule: `O=C(Cc1ccc(OCCCC2CCN(c3ncc(Cl)cn3)CC2)cc1F)N1CC2(C1)N(C[C@H](O)[C@H](O)[C@H](O)CO)CC2(F)F`
A: ≤ 100 nM

Q: Indicate the recorded EC50 value for this molecule: O=C(Cc1ccc(OCCCC2CCN(c3ncc(Cl)cn3)CC2)cc1F)N1CC2(CN(C[C@H](O)[C@H](O)[C@H](O)CO)C2)C1 [Example 25, formate]
A: > 10000 nM

Q: Indicate the recorded EC50 value for this molecule: `O=C(Cc1ccc(OCCCCC2CC3(CCN(c4ncc(Cl)cn4)CC3)C2)cc1F)N1CCN(C[C@H](O)[C@@H](O)[C@H](O)[C@H](O)CO)CC1`
A: 100 to 1000 nM

Q: Indicate the recorded EC50 value for this molecule: `O=C(Cc1ccc(OCCCC2CCN(c3ncc(Cl)cn3)CC2)cc1F)N1CC2(CCN2C(=O)CCCCS(=O)(=O)O)C1`
A: ≤ 100 nM

Q: Indicate the recorded EC50 value for this molecule: `O=C(Cc1ccc(OCCCC2CCN(c3ncc(Cl)cn3)CC2)c(F)c1)N1CCN(C[C@H](O)[C@@H](O)[C@H](O)[C@H](O)CO)CC1`
A: 100 to 1000 nM

Q: Indicate the recorded EC50 value for this molecule: O=C(Cc1ccc(OCCCC2CCN(c3ncc(Cl)cn3)CC2)cc1F)N1CCC2(CCCC2NC[C@H](O)[C@@H](O)[C@H](O)[C@H](O)CO)C1 (stereo in doubt)
A: ≤ 100 nM

Q: Indicate the recorded EC50 value for this molecule: `O=C(Cc1ccc(OCCCC2CC3(CCN(c4ncc(Cl)cn4)CC3)C2)cc1F)N1CCN(C[C@H](O)[C@@H](O)[C@H](O)[C@H](O)CO)CC1`
A: ≤ 100 nM

Q: Indicate the recorded EC50 value for this molecule: `O=C(CCCCS(=O)(=O)O)N1C[C@H]2CN(C(=O)Cc3ccc(OCCCC4CCN(c5ncc(Cl)cn5)CC4)cc3F)[C@H]2C1`
A: ≤ 100 nM

Q: Indicate the recorded EC50 value for this molecule: O=C(Cc1ccc(OCCCC2CCN(c3ncc(Cl)cn3)CC2)cc1F)N1CCC2(CCN2C[C@H](O)[C@@H](O)[C@H](O)[C@H](O)CO)C1 (stereo partly shown)
A: ≤ 100 nM
